From: PubChem BioAssay (NCI)

Would you mind telling me the reported TGI of each entry?
- System: MALME-3M melanoma
- assay-details: NCI tumour cell line growth inhibition, 48 h
Numbers only here, please. The scale is µM.

TGI reading for O=C1C=C(NCC(c2ccccc2)c2ccccc2)C(=O)c2ncccc21 : 3.4

Lookup result for CC1=CC(C)(C)Nc2ccc(Cc3ccc4c(c3)C(C)=CC(C)(C)N4)cc21 ; measured TGI: 42

// recorded TGI for Cc1cc(S(=O)(=O)NC2=NCCCN2)c(S)cc1Cl : 72.4

For CCC[CH2][Sn]([CH2]CCC)([O]C(=O)c1cc(F)ccc1F)[O]C(=O)c1cc(F)ccc1F the compound record lists TGI as 2.1
